Molecular target: cynomolgus complement C3b protein (cynomolgus monkey (Macaca fascicularis))
Assay: cell-based or functional assay
MEASUREMENT NAME: C3b Dep (nM), cyno serum, IC50
Number in nM, nothing else.

# example entries with known answers
Notebook: MOR09124 Fab (Fab, V domains shown, HCDR2-matured derivative of parental MOR08305) VH: QVQLVESGGGLVQPGGSLRLSCAASGFTFSSYWMTWVRQAPGKGLEWVSSIKIKPDGYAASVKGRFTISRDNSKNTLYLQMNSLRAEDTAVYYCARLFYQYFARMDYWGQGTLVTVSS VL: DIQMTQSPSSLSASVGDRVTITCRASQDISNYLNWYQQKPGKAPKLLIYAASNLQSGVPSRFSGSGSGTDFTLTISSLQPEDFATYYCQQYDSYSPTFGQGTKVEIKR , C3b Dep (nM), cyno serum, IC50 read as 73

Notebook: MOR09136 Fab (Fab, V domains shown, also called Fab 9136) VH: QVQLVQSGAEVKKPGSSVKVSCKASGGTFSSYTFSWVRQAPGQGLEWMGNILPIFGDANYAQKFQGRVTITADESTSTAYMELSSLRSEDTAVYYCARNKGAFYYMSTYPSLDVWGQGTLVTVSS VL: DIQMTQSPSSLSASVGDRVTITCRASQNINYYLNWYQQKPGKAPKLLIYDAFSLQSGVPSRFSGSGSGTDFTLTISSLQPEDFATYYCQQSWSVPPFTFGQGTKVEIKR , C3b Dep (nM), cyno serum, IC50 read as 3

Notebook: MOR09398 Fab (Fab, V domains shown, also called Fab 9398) VH: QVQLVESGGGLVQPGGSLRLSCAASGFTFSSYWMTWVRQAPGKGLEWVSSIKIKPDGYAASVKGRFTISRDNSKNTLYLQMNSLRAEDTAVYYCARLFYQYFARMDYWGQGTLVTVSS VL: DIQMTQSPSSLSASVGDRVTITCRASQDISNYLNWYQQKPGKAPKLLIYAASNLQSGVPSRFSGSGSGTDFTLTISSLQPEDFATYYCQQWDSFSPTFGQGTKVEIKR , C3b Dep (nM), cyno serum, IC50 read as 56

---
Notebook: MOR09141 Fab (Fab, V domains shown, also called Fab 9141) VH: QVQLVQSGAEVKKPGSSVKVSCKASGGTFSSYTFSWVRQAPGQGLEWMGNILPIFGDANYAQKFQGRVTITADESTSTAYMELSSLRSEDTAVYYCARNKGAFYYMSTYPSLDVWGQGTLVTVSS VL: DIQMTQSPSSLSASVGDRVTITCRASQNINYYLNWYQQKPGKAPKLLIYDAFSLQSGVPSRFSGSGSGTDFTLTISSLQPEDFATYYCQQSIAVPPFTFGQGTKVEIKR , C3b Dep (nM), cyno serum, IC50 read as 9
